Measured values drawn from patent US20120165403A1 for this set.

# Test system: TCDD induced luciferase activity (human CYP1A1 promoter)
# Test Description: Luciferase reporter gene assay in HepG2.101L cells
# Type: cell-based
# Run Parameters: 500 pM TCDD, 4 h, read-out: IC50, inhibition of TCDD induced luciferase activity

Molecule: O=C(O[C@@H]1Cc2c(O)cc(O)cc2O[C@@H]1c1cc(O)c(O)c(O)c1)c1cc(O)c(O)c(O)c1 [EGCG, epigallocatechin gallate]
IC50: ~100 µM
